Procedure summary: Inhibition of beta-lactamase AmpC in Pseudomonas aeruginosa assessed as inhibition of hydrolysis of nitrocefin
pIC50: −log10 of the molar value.
Decide using pIC50: a value greater than or equal to 7 is TRUE, a smaller one is FALSE.

For orientation, consider the following solved cases.
Exam item: Determine whether this molecule has pIC50 no lower than 7: CN(C(=O)[C@@H]1CC[C@@H]2CN1C(=O)N2OS(=O)(=O)O)C1CCNCC1
Marked response: FALSE

Exam item: Does the molecule Nc1cccc(NC(=O)[C@@H]2CC[C@@H]3CN2C(=O)N3OS(=O)(=O)O)n1 have recorded pIC50 that is 7 or more?
Marked response: TRUE

Exam item: API: above_or_equal(metric=pIC50, cutoff=7) for item O=C(OC1CCNCC1)[C@@H]1CC[C@@H]2CN1C(=O)N2OS(=O)(=O)O
Marked response: FALSE

Exam item: In plain terms: is recorded pIC50 at least 7 for O=C(O)c1ccc(NC(=O)[C@@H]2CC[C@@H]3CN2C(=O)N3OS(=O)(=O)O)cc1 ?
Marked response: TRUE

More entries:
Exam item: Determine whether measured pIC50 meets or exceeds 7 for O=C(NC1CCS(=O)(=O)CC1)[C@@H]1CC[C@@H]2CN1C(=O)N2OS(=O)(=O)O
Marked response: TRUE

###

INH values for the molecules below.
System: Klebsiella pneumoniae
Procedure summary: Inhibition of beta-lactamase in Klebsiella pneumoniae CL 6569 assessed as drug concentration required to reduce imipenem MIC to 4 ug/ml
The figure you give is taken to be in µM; do not add the unit.

# annotated cases, reported INH shown
Exam item: Requested read-out INH, target or system Klebsiella pneumoniae, entry Nc1cccc(NC(=O)[C@@H]2CC[C@@H]3CN2C(=O)N3OS(=O)(=O)O)n1
Marked response: 25

Exam item: Observed INH on Klebsiella pneumoniae for NCc1ccc(NC(=O)[C@@H]2CC[C@@H]3CN2C(=O)N3OS(=O)(=O)O)nc1 , please.
Marked response: 12.5

Exam item: Give recorded INH with Klebsiella pneumoniae for the following molecule: O=C(NC1CCNCC1)[C@@H]1CC[C@@H]2CN1C(=O)N2OS(=O)(=O)O [RELEBACTAM]
Marked response: 12.5

Exam item: What reported INH corresponds to O=C(Nc1ccccn1)[C@@H]1CC[C@@H]2CN1C(=O)N2OS(=O)(=O)O on Klebsiella pneumoniae?
Marked response: 100

Exam item: What is its INH for Klebsiella pneumoniae? Entry: O=C(Nc1ccncc1)[C@@H]1CC[C@@H]2CN1C(=O)N2OS(=O)(=O)O
Marked response: 50

Continuing:
Exam item: Please provide the recorded INH for CN(C(=O)[C@@H]1CC[C@@H]2CN1C(=O)N2OS(=O)(=O)O)C1CCNCC1 , tested on Klebsiella pneumoniae.
Marked response: 50

Exam item: Lab request: please report INH under test system Klebsiella pneumoniae for O=C(N[C@@H]1CCCNCC1)[C@@H]1CC[C@@H]2CN1C(=O)N2OS(=O)(=O)O
Marked response: 12.5

Exam item: Hi! What's the reported INH for O=C(N[C@H]1CCNC1)[C@@H]1CC[C@@H]2CN1C(=O)N2OS(=O)(=O)O on Klebsiella pneumoniae?
Marked response: 6.25

Exam item: Hello, I am looking for reported INH with Klebsiella pneumoniae for O=C(NC1CCS(=O)(=O)CC1)[C@@H]1CC[C@@H]2CN1C(=O)N2OS(=O)(=O)O . Could you help?
Marked response: 50

Each recorded value in this set is attributed to ChEMBL document CHEMBL3112543.
